Molecular target: butyrylcholinesterase (BChE) (Homo sapiens, UniProt P06276)
Sequence (P06276 29-602): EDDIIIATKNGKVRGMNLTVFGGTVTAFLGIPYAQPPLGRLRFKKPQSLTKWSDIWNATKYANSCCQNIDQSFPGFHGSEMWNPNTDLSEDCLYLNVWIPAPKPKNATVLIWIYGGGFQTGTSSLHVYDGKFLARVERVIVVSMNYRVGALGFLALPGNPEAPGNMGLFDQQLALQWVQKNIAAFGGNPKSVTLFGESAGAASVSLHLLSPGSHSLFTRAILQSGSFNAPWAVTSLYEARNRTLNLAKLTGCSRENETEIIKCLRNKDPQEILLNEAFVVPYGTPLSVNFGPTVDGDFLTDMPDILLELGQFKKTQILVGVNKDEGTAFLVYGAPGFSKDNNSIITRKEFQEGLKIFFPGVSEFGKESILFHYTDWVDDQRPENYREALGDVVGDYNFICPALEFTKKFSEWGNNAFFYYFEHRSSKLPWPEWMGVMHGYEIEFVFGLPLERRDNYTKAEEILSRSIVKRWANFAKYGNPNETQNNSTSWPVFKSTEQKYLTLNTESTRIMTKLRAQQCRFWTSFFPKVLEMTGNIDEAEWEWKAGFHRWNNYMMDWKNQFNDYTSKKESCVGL
Assay: Butyrylcholinesterase inhibition assay
Type: biochemical
Conditions: n = 3, mean ± sem; read-out: Butyrylcholinesterase (BChE) (IC50)
With a cut-off of 60 µM, any IC50 strictly below it is called Y; any IC50 meeting it or above is called N.

# Structure, Class Label
records = [
    ("CCOc1cc(Br)c(Br)cc1NS(=O)(=O)c1ccccc1", "N"),
    ("CCOc1cc(Br)c(Br)cc1N(Cc1ccccc1Cl)S(=O)(=O)c1ccccc1", "Y"),
    ("CCOc1cc(Br)c(Br)cc1N(Cc1cccc(Cl)c1)S(=O)(=O)c1ccccc1", "Y"),
    ("CCOc1cc(Br)c(Br)cc1N(C(C)C)S(=O)(=O)c1ccccc1", "N"),
    ("CCOc1cc(Br)c(Br)cc1N(CCc1ccccc1)S(=O)(=O)c1ccccc1", "Y"),
    ("CCOc1cc(Br)c(Br)cc1N(CC)S(=O)(=O)c1ccccc1", "Y"),
    ("C=CCN(c1cc(Br)c(Br)cc1OCC)S(=O)(=O)c1ccccc1", "N"),
]

====

Target: UniProt:P22303
Sequence (P22303 32-614): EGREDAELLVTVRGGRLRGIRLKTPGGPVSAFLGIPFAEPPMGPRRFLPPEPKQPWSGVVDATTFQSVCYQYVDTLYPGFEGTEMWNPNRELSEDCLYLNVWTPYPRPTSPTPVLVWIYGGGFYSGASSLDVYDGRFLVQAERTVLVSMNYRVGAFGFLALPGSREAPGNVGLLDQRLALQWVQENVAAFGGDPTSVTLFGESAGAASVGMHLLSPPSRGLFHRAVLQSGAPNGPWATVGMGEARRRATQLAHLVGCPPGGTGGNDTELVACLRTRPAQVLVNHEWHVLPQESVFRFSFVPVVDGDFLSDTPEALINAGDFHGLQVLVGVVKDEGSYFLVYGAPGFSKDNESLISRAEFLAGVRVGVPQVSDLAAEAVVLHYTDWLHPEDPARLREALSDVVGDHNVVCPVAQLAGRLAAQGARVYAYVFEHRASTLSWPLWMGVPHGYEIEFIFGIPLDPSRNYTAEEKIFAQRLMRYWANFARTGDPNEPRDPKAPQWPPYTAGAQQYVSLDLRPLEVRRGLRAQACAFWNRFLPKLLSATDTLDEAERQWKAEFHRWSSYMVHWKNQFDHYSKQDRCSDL
Assay: Acetylcholinesterase inhibition assay
Format: biochemical

# Compound, Target Of Assay, IC50
rows = [
    ("CCOc1cc(Br)c(Br)cc1N(CCBr)S(=O)(=O)c1ccccc1 [Compound 6d]", "UniProt:P22303", "132 µM"),
]

====

Target: UniProt:P22303
Experiment: Acetylcholinesterase inhibition assay
Type: biochemical
Conditions: 0.5 mM; n = 3, mean ± sem; read-out: Acetylcholinestrase (AChE) inhibition (%) at 0.5 mM
Procedure: The AChE inhibition activity was performed according to the reported method ([14]) with slight modifications. Total volume of the reaction mixture was 100 μL. It contained 60 μL Na2HPO4 buffer with concentration of 50 mM and pH 7.7. […] The contents were mixed and pre-read at 405 nm. […] After 15 min of incubation at 37 °C, absorbance was measured at 405 nm. Synergy HT (BioTek, USA) 96-well plate reader was used in all experiments. […] The percent inhibition was calculated by the help of following equation )[19] […]

# Structure, Target Of Assay, Measurement Unit, inhibition at 500 µM
rows = [
    ("CCOc1cc(Br)c(Br)cc1N(Cc1cccc(Cl)c1)S(=O)(=O)c1ccccc1", "UniProt:P22303", "%", 82.5),
    ("CCOc1cc(Br)c(Br)cc1N(Cc1ccc(Cl)cc1)S(=O)(=O)c1ccccc1", "UniProt:P22303", "%", 82.9),
    ("CCOc1cc(Br)c(Br)cc1NS(=O)(=O)c1ccccc1", "UniProt:P22303", "%", 44.1),
    ("CCOc1cc(Br)c(Br)cc1N(Cc1ccccc1Cl)S(=O)(=O)c1ccccc1", "UniProt:P22303", "%", 86.7),
    ("CCOc1cc(Br)c(Br)cc1N(Cc1ccc(F)cc1)S(=O)(=O)c1ccccc1", "UniProt:P22303", "%", 81.5),
    ("CCOc1cc(Br)c(Br)cc1N(Cc1ccc(Br)cc1)S(=O)(=O)c1ccccc1", "UniProt:P22303", "%", 74.3),
]

====

Biological target: butyrylcholinesterase (BChE) (Homo sapiens)
Experiment: Butyrylcholinesterase inhibition assay
Assay type: biochemical
Conditions: 0.5 mM; n = 3, mean ± sem; read-out: Butyrylcholinesterase (BChE) inhibition (%) at 0.5 mM
Readout Name: inhibition at 500 µM (%)

# Compound, Target Of Assay, Observed Value
records = [
    ("CCOc1cc(Br)c(Br)cc1N(Cc1ccc(F)cc1)S(=O)(=O)c1ccccc1 [Compound 6j]", "butyrylcholinesterase (BChE) (Homo sapiens)", 87.2),
    ("CCOc1cc(Br)c(Br)cc1N(CCc1ccccc1)S(=O)(=O)c1ccccc1 [Compound 6f]", "butyrylcholinesterase (BChE) (Homo sapiens)", 88.7),
    ("CCOc1cc(Br)c(Br)cc1N(CCCc1ccccc1)S(=O)(=O)c1ccccc1 [Compound 6g]", "butyrylcholinesterase (BChE) (Homo sapiens)", 90.1),
    ("CCOc1cc(Br)c(Br)cc1N(Cc1ccc(Br)cc1)S(=O)(=O)c1ccccc1 [Compound 6h]", "butyrylcholinesterase (BChE) (Homo sapiens)", 87.9),
    ("C=CCN(c1cc(Br)c(Br)cc1OCC)S(=O)(=O)c1ccccc1 [Compound 6c]", "butyrylcholinesterase (BChE) (Homo sapiens)", 80.8),
    ("CCOc1cc(Br)c(Br)cc1N(C(C)C)S(=O)(=O)c1ccccc1 [Compound 6b]", "butyrylcholinesterase (BChE) (Homo sapiens)", 56.6),
]

Reference source for all entries: paper PMC3985256
